The reported measurements were obtained from PubChem BioAssay (NCI).

growth listing for selected compounds.
# System: OVCAR-3 ovarian
# test.description: NCI-60 one-dose screen, 48 h (100 = growth as untreated, 0 = no growth, -100 = all killed)
# condition.description: 10 µM unless noted
This is part of a sample that, as a whole, favours compounds with a hit. Of some 83,000 tested, about 20% had one in any assay.

compound: CCCCNC(=O)c1ccccc1C
growth [%]: 105

compound: c1ccc2c[n+](Cc3ccc4ccccc4n3)ccc2c1
growth [%]: 62.1

compound: CC(NC(=O)CCl)c1ccccc1 (stereo unspecified)
growth [%]: 102

compound: O=C1C=CC(=O)N1Cc1ccco1
growth [%]: 113

compound: Cc1cnc(N)s1
growth [%]: 105

compound: CCN(CC)C(=S)SCCO
growth [%]: 106

compound: OC1CCCN(Cc2ccccc2)C1 (stereo unspecified)
growth [%]: 113

compound: COc1ccc(/C=N/NC(N)=S)cc1
growth [%]: 111

compound: CCOC(=O)CN1CCC(C(=O)OCC)CC1
growth [%]: 117

compound: Cc1cc(=NO)cc(C)n1O
growth [%]: 104

compound: CCOP(C)(=O)/C(Cc1ccc(OC)c(OC)c1)=N\O (stereo unspecified)
growth [%]: 111

compound: Cc1cccc(Cl)c1N
growth [%]: 117

compound: CC(=O)/C(N=Nc1ccc(S(=O)(=O)c2ccc(N=N/C(C(C)=O)=C(/C)O)cc2)cc1)=C(\C)O
growth [%]: 105

compound: O=C1c2ccccc2CN1c1ccccc1
growth [%]: 108

compound: O=C1c2ccccc2C(c2ccccc2)C1c1ccccc1 (stereo unspecified)
growth [%]: 105

compound: CCOC(C)=N
growth [%]: 110

compound: CC1NC(C)c2ccc3ccccc3c2O1 (stereo unspecified)
growth [%]: 106

compound: CSc1nc(N)c(N)c(N)n1
growth [%]: 113

compound: CC1CCC(=O)N1c1ccc(N)cc1 (stereo unspecified)
growth [%]: 108

compound: COc1ccc(/C=N/Nc2nc3ccccc3s2)cc1
growth [%]: 86.4

compound: Cc1nc(Nc2ccc(Cl)cc2)c2cnn(-c3ccccc3)c2n1
growth [%]: 106

compound: ON=C(C1CCCCC1)C1CCCCC1
growth [%]: 105

compound: OCCCc1ccccc1
growth [%]: 109

compound: COc1cc2oc3cc(=O)cc4oc(-c5ccccc5)cc(c2c2c1CCC(c1ccccc1)O2)c43 (stereo unspecified)
growth [%]: 106

compound: O=C1Cc2ccccc2C(=O)N1
growth [%]: 76.3

compound: CCCC(=O)Oc1ccc2ccccc2c1
growth [%]: 113

compound: CC(=O)Nc1cscc1NC(C)=O
growth [%]: 102

compound: CCNC1=CC(=O)c2ncccc2C1=O
growth [%]: 1.49

compound: Nc1c(Cl)cc2c(c1Br)C(=O)c1ccccc1C2=O
growth [%]: 117

compound: CS(=O)(=O)c1nsc(N)n1
growth [%]: 107

compound: OCc1cccc(F)c1
growth [%]: 125
